Tested on: MCF7 breast
Assay: NCI tumour cell line growth inhibition, 48 h
endpoint_name: TGI

Can you look up the measured TGI of `COc1cc2c3c(c1O)N=NC=3CCN=2` for me? 20.2 µM

Can you look up the measured TGI of `Cc1c(C)c(S(=O)(=O)N(CCCCCCN)OCCCN)c(C)c2c1OC(C)(C)CC2` for me? > 100 µM

Can you look up the measured TGI of COc1cc2c(cc1OC)C1c3ccccc3CCCN1CC2 (stereo not drawn) for me? > 100 µM

Can you look up the measured TGI of COc1ccccc1N1CCN(CC(O)COc2c(Br)c(Br)c(Br)c3c2OC(C)(C)C3)CC1 (stereo not drawn) for me? > 100 µM

Can you look up the measured TGI of C=C(C(=O)OC1C(CO)OC(OCC2CC[C@@H]3C[C@]4(OC(=O)C3=C)C(C)=CC(=O)C24)C(O)C1O)[C@@H]1CCC(CO)C2C(=O)C=C(C)[C@@]2(O)C1 (stereo partly drawn) for me? 12.8 µM

Can you look up the measured TGI of `CC(C)Sc1nncc(/C(N)=N/O)n1` for me? > 100 µM

Can you look up the measured TGI of `Cc1nc(Nc2ccc(Cl)cc2Cl)sc1C(=O)Nc1ccccc1` for me? > 100 µM

Can you look up the measured TGI of `Cc1cc2nc3c4cc(C=O)ccc4n(CCN(C)C)c3nc2cc1C` for me? 5.99 µM

Can you look up the measured TGI of `CCOC(=O)N1CCN(c2ccc3ccc(N)nc3n2)CC1` for me? > 100 µM

Can you look up the measured TGI of `O=C1Cc2c([nH]c3ccc(Cl)cc23)-c2ccccc2N1` for me? > 100 µM

Can you look up the measured TGI of COC(=O)C1=C(OC(=O)/C(=C/c2ccccc2)c2ccccc2)C(C(=O)OC)[C@@]2(O)[C@@H](C(=O)OC)[C@H](C)C[C@@H]1[C@@H]2C(=O)OC (stereo partly drawn) for me? > 100 µM

Can you look up the measured TGI of CCOP(=O)(OCC)OC1c2[nH]ccc2-c2cc(C(=O)OC)[nH]c2C1OC (stereo not drawn) for me? > 100 µM

Can you look up the measured TGI of `O=c1c(Br)c(-c2ccccc2)[nH]c2ccccc12` for me? > 100 µM

Can you look up the measured TGI of `C=C(CN1CCc2ccccc2C1)c1ccc(CCC(=O)Nc2ccccc2N)cc1` for me? 54.7 µM

Can you look up the measured TGI of `COc1cc(/C=C2\N=C(c3ccccc3)N(c3cc4cc(Sc5ccccc5)ccc4[nH]3)C2=O)cc(OC)c1OC` for me? 25.1 µM

Can you look up the measured TGI of c1ccc2c(c1)CN1CCCC1CN2 (stereo not drawn) for me? > 100 µM

Can you look up the measured TGI of `COc1ccccc1NCc1nnc(CCCCCCCCc2nnc(CNc3ccccc3OC)o2)o1` for me? > 100 µM

Can you look up the measured TGI of O=C(O)CCC(N=C(C(=NC(CCC(=O)O)C(=O)O)c1ccccc1)c1ccccc1)C(=O)O (stereo not drawn) for me? > 100 µM
